Field: IC50. Provide a value for each of the compounds that follow.
measured-on: TBK1 (Homo sapiens)
Construct: His-tag; made in house; host or cells: Sf9 insect cells
Sequence (Q9UHD2 whole entry): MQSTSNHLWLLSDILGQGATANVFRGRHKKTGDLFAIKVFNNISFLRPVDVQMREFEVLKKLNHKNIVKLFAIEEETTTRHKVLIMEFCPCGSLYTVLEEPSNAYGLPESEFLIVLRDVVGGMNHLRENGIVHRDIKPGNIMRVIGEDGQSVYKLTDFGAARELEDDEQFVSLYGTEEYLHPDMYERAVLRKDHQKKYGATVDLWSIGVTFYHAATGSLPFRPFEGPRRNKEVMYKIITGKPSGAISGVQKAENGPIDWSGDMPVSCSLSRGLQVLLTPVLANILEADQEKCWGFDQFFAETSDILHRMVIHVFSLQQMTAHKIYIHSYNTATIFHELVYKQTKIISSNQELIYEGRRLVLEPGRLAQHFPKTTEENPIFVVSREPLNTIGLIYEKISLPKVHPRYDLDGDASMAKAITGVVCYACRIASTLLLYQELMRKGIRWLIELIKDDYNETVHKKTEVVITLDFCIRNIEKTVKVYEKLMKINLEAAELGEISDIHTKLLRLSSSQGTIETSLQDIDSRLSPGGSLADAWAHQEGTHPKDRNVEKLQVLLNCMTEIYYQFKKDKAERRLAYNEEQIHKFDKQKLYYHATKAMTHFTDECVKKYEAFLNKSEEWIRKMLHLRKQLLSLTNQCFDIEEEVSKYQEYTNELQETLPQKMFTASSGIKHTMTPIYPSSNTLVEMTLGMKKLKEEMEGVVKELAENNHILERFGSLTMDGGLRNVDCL
experiment: In-vitro TBK1 kinase assay ([γ33]ATP filter-plate)
Assay type: biochemical
run-parameters: text bins; read-out: IC50 for inhibition of the kinase activity of TBK1

Worked cases, answers included:
N#Cc1cc(-c2ccnc(Nc3ccc(N4CCOCC4)cc3)n2)ccc1NCc1ccccn1 = < 10 nM
N#Cc1cc(-c2ccnc(Nc3cccc(CS(=O)(=O)NCCO)c3)n2)ccc1NC(=O)C1CC1 = < 10 nM
COCCNC(=O)Nc1cccc(Nc2nccc(-c3ccc(OC4CCOCC4)c(C#N)c3)n2)c1 = < 10 nM
COc1ccc(Nc2nccc(-c3ccc(OC(C)C)c(C#N)c3)n2)cc1OC = < 10 nM
CN1CCN(C(=O)Nc2ccc(Nc3nccc(-c4ccc(OC5CCOCC5)c(C#N)c4)n3)cc2)CC1 = < 10 nM

Below are some compounds; for each one, tell me its IC50.
1. N#Cc1cc(-c2ccnc(Nc3ccc(N4CCOCC4)cc3)n2)ccc1OCc1cccnc1
2. COCC(=O)Nc1cc(Nc2nccc(-c3ccc(OC)c(C#N)c3)n2)cc(OC)c1
3. COc1ccc(Nc2nccc(-c3ccc(OC4CCOCC4)c(C#N)c3)n2)cc1OCCCN1CCOCC1
4. N#Cc1cc(-c2ccnc(Nc3cccc(CO)c3)n2)ccc1OC1CCOCC1
5. COc1cc(NC(=O)c2cccnc2)cc(Nc2nccc(-c3ccc(OC)c(C#N)c3)n2)c1
6. CC(C)Nc1ccc(-c2ccnc(Nc3ccc(N4CCOCC4)cc3)n2)cc1C#N

Result block:
< 10 nM
10 to 100 nM
< 10 nM
< 10 nM
10 to 100 nM
< 10 nM

These data points were gathered from patent US20150352108A1.
